Source listed as paper PMC5431883.

Measured target: Mdm2 (1-125) (Homo sapiens)
Construct: Purified MDM2 (1-125) protein was titrated against 50 nM carboxyfluorescein (FAM)-labeled; GST (N, cleaved yes); made in house; host or cells: E. coli BL21 DE3 (pGEX-6P-1)
Sequence (Q00987 1-125): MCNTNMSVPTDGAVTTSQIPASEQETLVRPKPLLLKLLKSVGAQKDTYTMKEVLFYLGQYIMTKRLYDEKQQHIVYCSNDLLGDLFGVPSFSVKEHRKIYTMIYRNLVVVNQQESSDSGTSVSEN
Assay details: Mdm2 competitive fluorescence anisotropy assay (FAM-labeled 12/1 peptide displacement); further: 250 nM MDM2
Format: binding
Experimental parameters: read-out: Kd (apparent dissociation constant, competitive fluorescence anisotropy)
Positions of bridges follow the written chain, without caps; N, C: chain ends. Non-standard residues stand in square brackets, D forms with d. Residues, ends and D or L forms follow the SMILES beside them. *: point of attachment. Biotin = O=C1N[C@H]2[C@H](CS[C@H]2CCCCC(=O)*)N1; R8 = C=CCCCCCC[C@@](C)(N)C(=O)O; Cba = N[C@@H](CC1CCC1)C(=O)O; S5 = C=CCCC[C@](C)(N)C(=O)O; Ahx = NCCCCCC(=O)O
Observed property: pKd
Answers are plain numbers, as −log10 of the molar value.

Give pKd for each of the items listed below.
1. CC(=O)N[C@@H](CCCCN)C(=O)N[C@@H](CCCCN)C(=O)NCCCCCC(=O)N[C@H](C(=O)N[C@@H](CO)C(=O)N[C@@H](Cc1ccccc1)C(=O)N[C@]1(C)CCCCCCC=CCCC[C@@](C)(C(N)=O)NC(=O)[C@H](CC(C)C)NC(=O)[C@H](CC(C)C)NC(=O)[C@H](C)NC(=O)[C@H](Cc2c[nH]c3ccccc23)NC(=O)[C@H](Cc2ccc(O)cc2)NC(=O)[C@H](CCC(=O)O)NC1=O)[C@@H](C)O [VIP-77]
2. CC(=O)N[C@H](C(=O)N[C@@H](CO)C(=O)N[C@@H](Cc1ccccc1)C(=O)NC(C)(C)C(=O)N[C@@H](CCC(=O)O)C(=O)N[C@@H](Cc1ccc(O)cc1)C(=O)N[C@@H](Cc1c[nH]c2ccccc12)C(=O)N[C@@H](C)C(=O)N[C@@H](CC(C)C)C(=O)N[C@@H](CC(C)C)C(=O)NC(C)(C)C(=O)N[C@@H](CCC(=O)O)C(N)=O)[C@@H](C)O [VIP-76]
3. CC(C)C[C@@H]1NC(=O)[C@H](C)NC(=O)[C@H](Cc2c[nH]c3ccccc23)NC(=O)[C@H](Cc2ccc(O)cc2)NC(=O)[C@H](CCC(=O)O)NC(=O)[C@](C)(NC(=O)[C@H](Cc2ccccc2)NC(=O)[C@H](CO)NC(=O)[C@@H](NC(=O)CCCCCNC(=O)CCCC[C@@H]2SC[C@@H]3NC(=O)N[C@@H]32)[C@@H](C)O)CCCCCCC=CCCC[C@@](C)(C(=O)N[C@@H](CCC(=O)O)C(=O)N[C@@H](CC(N)=O)C(=O)N[C@@H](Cc2ccccc2)C(N)=O)NC(=O)[C@H](CC(C)C)NC1=O [VIP-83]
4. CC(=O)N[C@H](C(=O)N[C@@H](CO)C(=O)N[C@@H](Cc1ccccc1)C(=O)N[C@]1(C)CCCCCCC=CCCC[C@@](C)(C(=O)N[C@@H](CCC(=O)O)C(N)=O)NC(=O)[C@H](CC2CCC2)NC(=O)[C@H](CC(C)C)NC(=O)[C@H](C)NC(=O)[C@H](Cc2c[nH]c3ccccc23)NC(=O)[C@H](Cc2ccc(O)cc2)NC(=O)[C@H](CCC(=O)O)NC1=O)[C@@H](C)O [VIP-71] (Ac-TSF[R8]EYWAL[Cba][S5]E-NH2; staple 4-11)
5. CC(C)C[C@@H]1NC(=O)[C@H](C)NC(=O)[C@H](Cc2c[nH]c3ccccc23)NC(=O)[C@H](Cc2ccc(O)cc2)NC(=O)[C@H](CCC(=O)O)NC(=O)[C@](C)(NC(=O)[C@H](Cc2ccccc2)NC(=O)[C@H](CO)NC(=O)[C@@H](NC(=O)CCCCCNC(=O)CCCC[C@@H]2SC[C@@H]3NC(=O)N[C@@H]32)[C@@H](C)O)CCCCCCC=CCCC[C@@](C)(C(N)=O)NC(=O)[C@H](CC2CCC2)NC1=O [VIP-68] ({Biotin-Ahx}-TSF[R8]EYWAL[Cba][S5]-NH2; staple 4-11)

Completion:
[7.33, 7.44, 7.61, 7.85, 7.38]
